Readings of pIC50 for the listed compounds
biological target: Recombinant human FGFR2 (Homo sapiens, UniProt P21802); experiment: Transcreener Kinase Assay of FGFR2; type: biochemical; details: read-out: FGFR2 (FP) IC50
Sequence (P21802 22-821): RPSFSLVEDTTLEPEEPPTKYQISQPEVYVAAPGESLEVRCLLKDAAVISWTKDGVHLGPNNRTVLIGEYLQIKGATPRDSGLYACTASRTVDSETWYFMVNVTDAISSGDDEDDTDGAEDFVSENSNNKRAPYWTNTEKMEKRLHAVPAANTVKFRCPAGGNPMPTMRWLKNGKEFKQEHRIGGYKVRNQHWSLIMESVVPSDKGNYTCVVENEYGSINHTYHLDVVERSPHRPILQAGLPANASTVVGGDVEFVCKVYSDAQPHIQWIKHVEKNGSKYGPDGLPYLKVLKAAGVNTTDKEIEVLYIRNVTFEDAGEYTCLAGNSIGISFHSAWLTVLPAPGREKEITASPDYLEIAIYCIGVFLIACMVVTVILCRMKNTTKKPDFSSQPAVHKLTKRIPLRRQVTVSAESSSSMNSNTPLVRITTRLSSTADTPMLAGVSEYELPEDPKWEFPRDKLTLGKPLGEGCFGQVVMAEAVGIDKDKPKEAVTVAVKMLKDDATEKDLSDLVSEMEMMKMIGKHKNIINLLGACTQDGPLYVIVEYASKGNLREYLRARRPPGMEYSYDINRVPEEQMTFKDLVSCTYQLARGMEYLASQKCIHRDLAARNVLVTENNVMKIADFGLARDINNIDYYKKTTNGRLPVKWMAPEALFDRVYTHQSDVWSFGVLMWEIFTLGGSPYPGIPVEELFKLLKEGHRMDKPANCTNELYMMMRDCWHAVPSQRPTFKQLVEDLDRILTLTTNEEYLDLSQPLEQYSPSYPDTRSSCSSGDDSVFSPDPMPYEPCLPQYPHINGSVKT
To interpret pIC50, take it as minus log10 of a concentration measured in moles per litre.

Solved entries:
[
  {
    "COMPOUND": "CNC(=O)c1cc(CCc2cnc(Nc3cnn(C4CCN(C)CC4)c3)nc2)c(Cl)c(OC)c1 [Compound 177]",
    "pIC50": 8.30
  },
  {
    "COMPOUND": "CCn1cnc(Nc2ncc(CCc3cc(C(=O)NC)cc(OC)c3F)cn2)c1 [Compound 28]",
    "pIC50": 6.61
  },
  {
    "COMPOUND": "CNC(=O)c1cc(CCc2cnc(Nc3ccc4nnc(COC)n4c3)nc2)c(F)c(OC)c1 [Compound 72]",
    "pIC50": 7.62
  },
  {
    "COMPOUND": "C#Cc1ccc(Nc2ncc(OCc3cc(C(=O)NC)cc(OC)c3F)cn2)cc1 [Compound 210]",
    "pIC50": 7.57
  },
  {
    "COMPOUND": "CNC(=O)c1cc(CCc2ccc(Nc3cnn(C)c3)nc2)c(F)c(OC)c1 [Compound 103]",
    "pIC50": 7.68
  },
  {
    "COMPOUND": "CNC(=O)c1cc(CCc2cnc(Nc3ccc4c(C)n(C)nc4c3)nc2)c(Cl)c(OC)c1 [Compound 84]",
    "pIC50": 8.15
  },
  {
    "COMPOUND": "CNC(=O)c1cc(CCc2cnc(Nc3cnn(C4CCNCC4)c3)nc2)c(F)c(OC)c1 [Compound 164]",
    "pIC50": 8.10
  },
  {
    "COMPOUND": "CNC(=O)c1cc(COc2cnc(Nc3ccc(N4C[C@@H](C)N[C@@H](C)C4)nc3)nc2)c(F)c(OC)c1 [Compound 201]",
    "pIC50": 7.92
  },
  {
    "COMPOUND": "CNC(=O)c1cc(CCc2cnc(Nc3cnn(-c4cccnc4)c3)nc2)c(F)c(OC)c1 [Compound 128]",
    "pIC50": 8.00
  },
  {
    "COMPOUND": "CCn1ncc(Nc2ncc(CCc3cc(C(=O)NC)cc(OC)c3F)cn2)c1C [Compound 110]",
    "pIC50": 7.85
  }
]

Asked: Give pIC50 (Recombinant human FGFR2 (Homo sapiens, UniProt P21802)) of the following compound: CCN1CCN(c2ccc(Nc3ncc(CCc4cc(OC)cc(C(=O)NOC(C)C)c4)cn3)cc2)CC1 [Compound 58]
Given back: 6.91

Asked: Note, next up: CCN1CC[C@@H](n2cc(Nc3ncc(CCc4cc(C(=O)NC)cc(OC)c4F)cn3)cn2)C1 [Compound 170]
Given back: 7.06

Asked: Queued: CCn1cc(Nc2ncc(CCc3cc(C(=O)NC)cc(OC)c3F)cn2)c(C)n1 [Compound 111]
Given back: 7.48

Asked: Consider next the compound CNC(=O)c1cc(CCc2cnc(Nc3ccn4c(C)nnc4c3)nc2)c(F)c(OC)c1 [Compound 70] in the same way.
Given back: 7.80

Asked: Another compound to look at: CNC(=O)c1cc(CCc2cnc(Nc3cnn([C@@H]4CCNC4)c3)nc2)c(F)c(OC)c1 [Compound 161]
Given back: 8.05

Asked: Repeat with CCN1CCC(n2cc(Nc3ncc(CCc4cc(C(=O)NC)cc(OC)c4F)cn3)cn2)CC1 [Compound 176]
Given back: 8.15
